test-method-notes: in vitro
protocol-conditions: human

compound	CC50
C#Cc1cccc(Nc2ncnc3nc(NC4CC4)ncc23)c1	> 50 µM
C#Cc1cccc(Nc2ncnc3cc(OCCOC)c(OCCOC)cc23)c1 [Erlotinib, erlotinib, reference compound]	> 100 µM
CCN(CC)CCNc1ncc2c(Nc3cccc4c3CCC4)ncnc2n1	> 50 µM
c1cc2c(c(Nc3ncnc4nc(NC5CC5)ncc34)c1)CCCC2	> 50 µM
CN(C)CCNc1ncc2c(Nc3cccc4c3CCCC4)ncnc2n1	> 50 µM
C=CC(=O)Nc1cccc(Oc2nc(Nc3ccc(N4CCN(C)CC4)cc3OC)ncc2Cl)c1 [WZ4002, reference compound]	> 100 µM
c1cc2c(c(Nc3ncnc4nc(NC5CC5)ncc34)c1)CCC2	> 50 µM
CN1CCN(c2ncc3c(Nc4cccnc4)ncnc3n2)CC1	> 50 µM

* * *

structure-string	melting point
CCN(CC)CCNc1ncc2c(Nc3cccnc3)ncnc2n1	220 to 224 °C
CN1CCN(c2ncc3c(Nc4cccc5c4CCC5)ncnc3n2)CC1	> 250 °C
CN1CCN(c2ncc3c(Nc4cccnc4)ncnc3n2)CC1	> 300 °C

* * *

Here, each record is paired with measured pEC50 data.
Test system: HCoV-NL63
test-method-notes: Antiviral CPE reduction assay, HCoV-NL63 in Hep3B cells
Type: cell-based, human coronavirus NL63
protocol-conditions: Human coronavirus NL63, MTS, mean ± SD of two or three independent experiments
pEC50: −log10 of the molar value.
measured-endpoint: pEC50

compound	test-target	value
c1cc2c(c(Nc3ncnc4nc(NC5CC5)ncc34)c1)CCCC2	HCoV-NL63	< 4.30
c1cncc(Nc2ncnc3nc(NC4CC4)ncc23)c1	HCoV-NL63	< 4.30
c1cc2c(c(Nc3ncnc4nc(NC5CC5)ncc34)c1)CCC2	HCoV-NL63	< 4.30
CCC(CC)COC(=O)[C@H](C)N[P@](=O)(OC[C@H]1O[C@@](C#N)(c2ccc3c(N)ncnn23)[C@H](O)[C@@H]1O)Oc1ccccc1 [Remdesivir, remdesivir, reference compound]	HCoV-NL63	6.85
CCN(CC)CCNc1ncc2c(Nc3cccc4c3CCC4)ncnc2n1	HCoV-NL63	< 4.30

* * *

Here, each record is paired with measured EC50 data.
Tested on: influenza A/H3N2 (A/HK/7/87)
test-method-notes: Antiviral CPE reduction assay, influenza A/H3N2 in MDCK cells
Assay type: cell-based, influenza A virus
protocol-conditions: Influenza A virus, H3N2; MDCK cells; CPE reduction, MTS; mean ± SD of two or three independent experiments; read-out: Antiviral Activity (EC50) Influenza H3N2

molecule	EC50
C#Cc1cccc(Nc2ncnc3nc(N4CCN(C)CC4)ncc23)c1 [Compound 7h]	> 50 µM
C#Cc1cccc(Nc2ncnc3cc4c(cc23)OCCOCCOCCO4)c1 [Icotinib, icotinib, reference compound]	> 100 µM
C=CC(=O)Nc1cccc(Oc2nc(Nc3ccc(N4CCN(C)CC4)cc3OC)ncc2Cl)c1 [WZ4002, reference compound]	> 100 µM
CCN(CC)CCNc1ncc2c(Nc3cccnc3)ncnc2n1 [Compound 7l]	> 50 µM

* * *

Here, each record is paired with measured EC50 data.
Test system: HCoV-229E
test-method-notes: Antiviral CPE reduction assay, HCoV-229E in HEL299 cells
Assay type: cell-based, human coronavirus 229E
protocol-conditions: Human coronavirus 229E, HEL 299, MTS, mean ± SD of two or three independent experiments

molecule	EC50
c1cc2c(c(Nc3ncnc4nc(NC5CC5)ncc34)c1)CCC2	≥ 30.5 µM
CCN(CC)CCNc1ncc2c(Nc3cccnc3)ncnc2n1	> 50 µM
C#Cc1cccc(Nc2ncnc3cc4c(cc23)OCCOCCOCCO4)c1 [Icotinib, icotinib, reference compound]	> 100 µM
C#Cc1cccc(Nc2ncnc3cc(OCCOC)c(OCCO)cc23)c1 [OSI-420, reference compound]	> 100 µM
c1cncc(Nc2ncnc3nc(NC4CC4)ncc23)c1	> 50 µM
